Biological target: IDO1 enzyme in the Hela cell (Homo sapiens)
Construct: endogenous in cells; host or cells: HeLa cells stimulated with interferon γ (100 ng/ml)
Sequence (P14902 whole entry): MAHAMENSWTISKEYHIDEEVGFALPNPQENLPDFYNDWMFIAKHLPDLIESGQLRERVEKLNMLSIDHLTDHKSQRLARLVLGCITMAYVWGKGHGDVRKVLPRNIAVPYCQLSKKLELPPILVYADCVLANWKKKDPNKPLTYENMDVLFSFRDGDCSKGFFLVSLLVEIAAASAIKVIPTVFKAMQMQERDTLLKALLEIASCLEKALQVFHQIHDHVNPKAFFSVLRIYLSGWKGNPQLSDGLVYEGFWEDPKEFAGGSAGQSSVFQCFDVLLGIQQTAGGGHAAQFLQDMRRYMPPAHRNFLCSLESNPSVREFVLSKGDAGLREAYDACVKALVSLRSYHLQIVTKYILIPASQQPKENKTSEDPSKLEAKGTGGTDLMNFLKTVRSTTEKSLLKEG
Experiment: Cell activity: interferon γ-stimulated Hela cells, absorbance of supernatant at 480 nm
Type: cell-based
Details: interferon γ 100 ng/ml, 72 hours
Description: (2) Method for Determining Cell Activity Hela cells were cultured and passaged in a DMEM medium supplemented with antibiotics in a 37° C. […] The above centrifuged supernatant was transferred to a 384-well microplate (20 μl/well), then 20 μl of 2% didimethylaminobenzaldehyde acetic acid solution was added to each well, shaken and mixed evenly, then photometric absorption was performed at 480 nm, and values were measured.
readout_name: IC50

Solved entries (count: 3):
N=C(Nc1ccc(N)cc1)Nc1nonc1/C(=N/O)Nc1ccc(F)c(Br)c1 = < 0.001 µM
O=C(Nc1nocc1/C(=N/O)Nc1ccc(F)c(Br)c1)NC1CCCCC1 = 0.1 to 1 µM
O=C(Nc1nonc1/C(=N/O)Nc1ccc(F)c(Br)c1)N1CCNCC1 = 0.1 to 1 µM

Exercise: Tell me the measured IC50 of `O=C(Nc1nocc1/C(=N/O)Nc1ccc(F)c(Br)c1)Nc1c[nH]c2ccccc12` , please.
Solution: 0.1 to 1 µM

Exercise: Tell me the measured IC50 of `NS(=O)(=O)NCCNC(=O)Nc1nonc1/C(=N/O)Nc1ccc(F)c(Cl)c1` , please.
Solution: < 0.001 µM

Exercise: Tell me the measured IC50 of `O=C(Nc1conc1/C(=N/O)Nc1ccc(F)c(Br)c1)NC1CCCC1` , please.
Solution: > 1 µM

Exercise: Tell me the measured IC50 of `O=C(Nc1cocc1/C(=N/O)Nc1ccc(F)c(Br)c1)NC1CCCCC1` , please.
Solution: 0.1 to 1 µM

Exercise: Tell me the measured IC50 of `O=C(Nc1nonc1/C(=N/O)Nc1ccc(F)c(Br)c1)Nc1coc2ccccc12` , please.
Solution: 0.1 to 1 µM

###

Molecular target: IDO1 enzyme in the Hela cell (Homo sapiens)
Construct: endogenous in cells; host or cells: HeLa cells stimulated with interferon γ (100 ng/ml)
Assay: Cell activity: interferon γ-stimulated Hela cells, absorbance of supernatant at 480 nm
Format: cell-based
Conditions: interferon γ 100 ng/ml, 72 hours
readout_name: IC50

Solved entries (count: 3):
O=C(Nc1nonc1/C(=N/O)Nc1ccc(F)c(Br)c1)NC1CCOC1 (centres unmarked) = 0.1 to 1 µM
O=C(Nc1nonc1/C(=N/O)Nc1ccc(F)cc1)NC1CCC(O)CC1 (centres unmarked) = < 0.001 µM
O=C(Nc1ncccn1)Nc1nonc1/C(=N/O)Nc1ccc(F)c(Br)c1 = > 1 µM

Exercise: Entry `NS(=O)(=O)NCCCNC(=O)Nc1nonc1/C(=N/O)Nc1ccc(F)c(Br)c1` , system IDO1 enzyme in the Hela cell (Homo sapiens): what IC50 was measured?
Solution: < 0.001 µM

Exercise: Entry `O=C(Nc1nonc1/C(=N/O)Nc1ccc(F)c(Cl)c1)NC1CCCCC1` , system IDO1 enzyme in the Hela cell (Homo sapiens): what IC50 was measured?
Solution: 0.1 to 1 µM

Exercise: Entry `CS(=O)(=O)NCCNC(=O)Nc1nonc1/C(=N/O)Nc1ccc(F)c(Cl)c1` , system IDO1 enzyme in the Hela cell (Homo sapiens): what IC50 was measured?
Solution: < 0.001 µM

Exercise: Entry `O/N=C(\Nc1ccc(F)c(Br)c1)c1nonc1NC(=S)NC1CCNCC1` , system IDO1 enzyme in the Hela cell (Homo sapiens): what IC50 was measured?
Solution: < 0.001 µM

Exercise: Entry `O=C(Nc1ccsc1)Nc1cocc1/C(=N/O)Nc1ccc(F)c(Br)c1` , system IDO1 enzyme in the Hela cell (Homo sapiens): what IC50 was measured?
Solution: > 1 µM

###

Each entry below lists one item and its recorded IC50 value.
Target: UniProt P14902
Assay: Determination of biochemical activity of IDO1 enzyme (absorbance at 320 nm)
Conditions: room temperature, 3 hours

N=C(Nc1nonc1/C(=N/O)Nc1ccc(F)c(Br)c1)NC1CCC(N)CC1 (centres unmarked) [Embodiment 150] = 0.1 to 1 µM

Exercise: Tell me the measured IC50 of COc1ccc(NC(=S)Nc2conc2/C(=N/O)Nc2ccc(F)c(Cl)c2)cc1 [Embodiment 130] , please.
Solution: 0.1 to 1 µM

Exercise: Tell me the measured IC50 of O=C(Nc1ncncn1)Nc1nonc1/C(=N/O)Nc1ccc(F)c(Br)c1 [Embodiment 44] , please.
Solution: > 1 µM

Exercise: Tell me the measured IC50 of O=C(Nc1nocc1/C(=N/O)Nc1ccc(F)c(Br)c1)Nc1cccc2[nH]ccc12 [Embodiment 94] , please.
Solution: 0.1 to 1 µM

###

Biological target: IDO1 enzyme in the Hela cell (Homo sapiens)
Construct: endogenous in cells; host or cells: HeLa cells stimulated with interferon γ (100 ng/ml)
Test: Cell activity: interferon γ-stimulated Hela cells, absorbance of supernatant at 480 nm
Format: cell-based
Settings: interferon γ 100 ng/ml, 72 hours
Each entry below lists one item and its recorded IC50 value.

COc1ccc(NC(=O)Nc2nonc2/C(=N/O)Nc2ccc(F)c(Br)c2)c(F)c1 = 0.1 to 1 µM
O=C(Nc1nonc1/C(=N/O)Nc1ccc(F)c(Br)c1)NC1CCC1 = 0.1 to 1 µM
COc1ccc(NC(=N)Nc2nonc2/C(=N/O)Nc2ccc(F)c(Br)c2)cc1 = < 0.001 µM
O=C(Nc1cocc1/C(=N/O)Nc1ccc(F)c(Br)c1)NC1CCCC1 = 0.1 to 1 µM

Proceeding to the next molecule to report its IC50.
Exercise: Tell me the measured IC50 of `NCCNC(=O)Nc1conc1/C(=N/O)Nc1ccc(F)c(Br)c1` , please.
Solution: < 0.001 µM

###

Target: IDO1 enzyme in the Hela cell (Homo sapiens)
Construct: endogenous in cells; host or cells: HeLa cells stimulated with interferon γ (100 ng/ml)
Assay: Cell activity: interferon γ-stimulated Hela cells, absorbance of supernatant at 480 nm
Type: cell-based
Conditions: interferon γ 100 ng/ml, 72 hours
Experimental: (2) Method for Determining Cell Activity Hela cells were cultured and passaged in a DMEM medium supplemented with antibiotics in a 37° C. […] The above centrifuged supernatant was transferred to a 384-well microplate (20 μl/well), then 20 μl of 2% didimethylaminobenzaldehyde acetic acid solution was added to each well, shaken and mixed evenly, then photometric absorption was performed at 480 nm, and values were measured.
readout_name: IC50

Solved entries (count: 8):
O/N=C(\Nc1ccc(F)c(Br)c1)c1nonc1NC(=S)Nc1ccc(O)cc1 [Embodiment 117] = < 0.001 µM
N=C(Nc1nonc1/C(=N/O)Nc1ccc(F)c(Br)c1)NC1CC1 [Embodiment 149] = > 1 µM
O=C(Nc1nocc1/C(=N/O)Nc1ccc(F)c(Cl)c1)NC1CCCCC1 [Embodiment 99] = 0.1 to 1 µM
CCc1cccc(NC(=O)Nc2nonc2/C(=N/O)Nc2ccc(F)c(Br)c2)c1 [Embodiment 2] = 0.1 to 1 µM
CCCNC(=O)Nc1nocc1/C(=N/O)Nc1ccc(F)c(Br)c1 [Embodiment 91] = 0.1 to 1 µM
O=C(Nc1conc1/C(=N/O)Nc1ccc(F)c(Br)c1)NC1CCC(O)CC1 (centres unmarked) [Embodiment 105] = < 0.001 µM
O=C(NCCO)Nc1nocc1/C(=N/O)Nc1ccc(F)c(Br)c1 [Embodiment 89] = < 0.001 µM
COc1ccc(NC(=O)Nc2conc2/C(=N/O)Nc2ccc(F)c(Br)c2)cc1 [Embodiment 100] = 0.1 to 1 µM

Exercise: Tell me the measured IC50 of N=C(Nc1ccc(C(F)(F)F)cc1)Nc1nonc1/C(=N/O)Nc1ccc(F)c(Br)c1 [Embodiment 143] , please.
Solution: > 1 µM

Exercise: Tell me the measured IC50 of O/N=C(\Nc1ccc(F)c(Br)c1)c1nonc1NC(=S)NC1CC1 [Embodiment 125] , please.
Solution: > 1 µM

Exercise: Tell me the measured IC50 of CC(C)NC(=O)Nc1cocc1/C(=N/O)Nc1ccc(F)c(Br)c1 [Embodiment 71] , please.
Solution: 0.1 to 1 µM

Exercise: Tell me the measured IC50 of NCCNC(=O)Nc1nocc1/C(=N/O)Nc1ccc(F)c(Br)c1 [Embodiment 90] , please.
Solution: < 0.001 µM

Exercise: Tell me the measured IC50 of NCCNC(=O)Nc1cocc1/C(=N/O)Nc1ccc(F)c(Br)c1 [Embodiment 69] , please.
Solution: 0.1 to 1 µM

Exercise: Tell me the measured IC50 of O=C(Nc1nocc1/C(=N/O)Nc1ccc(F)c(Br)c1)NC1CC1 [Embodiment 86] , please.
Solution: > 1 µM

Exercise: Tell me the measured IC50 of O/N=C(\Nc1ccc(F)c(Br)c1)c1conc1NC(=S)NC1CCCCC1 [Embodiment 135] , please.
Solution: 0.1 to 1 µM

Exercise: Tell me the measured IC50 of CS(=O)(=O)N1CCN(C(=O)Nc2nonc2/C(=N/O)Nc2ccc(F)c(Br)c2)CC1 [Embodiment 50] , please.
Solution: 0.1 to 1 µM

Exercise: Tell me the measured IC50 of NS(=O)(=O)N1CCC(NC(=O)Nc2nonc2/C(=N/O)Nc2ccc(F)c(Br)c2)CC1 [Embodiment 15] , please.
Solution: < 0.001 µM
